B1: KLHL14 (parent)
chain: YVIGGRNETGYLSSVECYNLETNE

Variants of: B1
method-description: protein stability index of a GFP-peptide fusion (GPS, HEK-293T) (PSI 1-6); higher = more stable;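 also: lentivirally expressed fusions sorted by FACS into six bins by GFP to DsRed ratio, PSI derived from sequencing read proportions per bin multiplied by bin number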
stated-conditions: c terminus: a fixed tail appended
Threshold check on protein stability index: at or above 2 gives Fulfilled, strictly below gives Not fulfilled.

> print(dat)
    alteration          group
 1        S14R  Not fulfilled
 2        T22Q  Not fulfilled
 3         E8L  Not fulfilled
 4         T9P  Not fulfilled
 5        E24A  Not fulfilled
 6         G4D  Not fulfilled
 7        Y11C      Fulfilled
 8        E21L  Not fulfilled
 9        E24S      Fulfilled
10        S14L  Not fulfilled
11        Y18F      Fulfilled
12        N19A      Fulfilled
13        C17W      Fulfilled
14        E24Y      Fulfilled
15        E16Y  Not fulfilled
16        E21M  Not fulfilled
17        V15M  Not fulfilled
18        L20C      Fulfilled
19        N23G  Not fulfilled
20        L12V      Fulfilled
21         N7L      Fulfilled
22        Y18L      Fulfilled
23         V2A      Fulfilled
24        N19P      Fulfilled
25        E16K  Not fulfilled
26        T22H      Fulfilled
27        G10L      Fulfilled
28        L12N      Fulfilled
29        C17T      Fulfilled
30         V2H      Fulfilled
31        L12F  Not fulfilled
